Molecular target: Calmodulin-1 (Homo sapiens) (UniProt P0DP23)
Experiment: CALM1 binders on microarrays, EGTA buffer, profiling panel, biochemical, small-molecule microarray, Cy5-labelled CALM1 (AID 1111);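 further: labelled calmodulin applied in Tris saline Tween buffer holding calcium plus EGTA and DTT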
Details: Cy5-CALM1 binding fluorescence, higher = more signal
Where composite z-score equals or exceeds 0.02, the correct label is 1 (yes); where it does not, the label is 0 (no).

[
  {
    "compound": "C=CC[C@@H]1C=C[C@H](ON=C(C)CCC(=O)OC[C@H]2O[C@H](c3ccccc3)C=C[C@@H]2Oc2ccc(OC)cc2)[C@@H](CO)O1",
    "classAssignment": "0 (no)"
  },
  {
    "compound": "O=C1[C@H]2[C@H]3[C@H](O)[C@H](O)CC(=NO[C@@H]4O[C@H](CO)[C@@H](O)[C@H](O)[C@H]4O)[C@H]3CC[C@H]2C(=O)N1c1cccc(Oc2ccccc2)c1",
    "classAssignment": "0 (no)"
  },
  {
    "compound": "CO[C@@H]1COC(=O)[C@@H]2CCCN2C(=O)[C@@H](C)COC(=O)CC=C[C@H]1C",
    "classAssignment": "0 (no)"
  },
  {
    "compound": "CCOC(=O)[C@H](Cc1ccccc1)NC(=O)CCC1CC(OC(=O)NCc2cccc3ccccc23)CC2(CCCC(COC(=O)NCc3ccccc3)O2)O1 (stereo not given in full)",
    "classAssignment": "1 (yes)"
  },
  {
    "compound": "CO[C@H]1COC(=O)[C@@H](C)COC(=O)[C@@H](OCc2ccccc2)C=C[C@@H]1C",
    "classAssignment": "1 (yes)"
  }
]

###

Quick list: z-score per entry.
Experiment: HepG2 cell viability effects, profiling panel, calcein-AM fluorescence, 48 h, basal (AID 1164)
Conditions: higher = more signal
measuredMetric: z-score

[
  {
    "compound": "COC(=O)[C@H]1[C@@H](O)[C@@]2(O)c3ccccc3O[C@@]2(c2ccccc2)[C@@H]1c1ccccc1",
    "measuredMetric": "z-score",
    "result": -2.85
  },
  {
    "compound": "O=C1C[C@@H](O)[C@@H](O)[C@@H]2[C@@H]3C(=O)N(Cc4ccccc4)C(=O)[C@@H]3CC[C@@H]12",
    "measuredMetric": "z-score",
    "result": 0.208
  },
  {
    "compound": "COC(=O)CC=C[C@@H](C)[C@@H](C=NOCC[C@@H]1C=C[C@H](OC(C)=O)[C@@H](COC(C)=O)O1)NS(=O)(=O)c1ccc(C)cc1",
    "measuredMetric": "z-score",
    "result": -0.726
  },
  {
    "compound": "O=C1[C@H]2[C@H]3[C@H](O)[C@H](O)CC(=NOC[C@@H](O)COCc4ccco4)[C@H]3CC[C@H]2C(=O)N1C[C@@H]1CCCO1",
    "measuredMetric": "z-score",
    "result": -1.22
  },
  {
    "compound": "Cc1cc2c(nc1C)CCCN2CC(O)CN1CCCc2nc(C)c(C)cc21",
    "measuredMetric": "z-score",
    "result": -0.949
  },
  {
    "compound": "O=C1[C@H]2[C@H]3[C@H](O)[C@H](O)CC(=NO[C@@H]4O[C@H](CO)[C@@H](O)[C@H](O)[C@H]4O)[C@H]3CC[C@H]2C(=O)N1c1cccc(Oc2ccccc2)c1",
    "measuredMetric": "z-score",
    "result": -0.733
  },
  {
    "compound": "CCC(=O)[C@@]1(O)C(=O)N2C(=C3C(=O)OCC[C@@H]31)N(Cc1ccccc1)C(C)=C(C(=O)OC)[C@H]2c1ccccc1",
    "measuredMetric": "z-score",
    "result": 0.237
  },
  {
    "compound": "CCC1=NOC(CCC2CC(OC(=O)NCc3cccc4c3OCO4)CC3(CCCC(COC(=O)NCCc4ccccc4OC)O3)O2)C1 (stereo unspecified)",
    "measuredMetric": "z-score",
    "result": -2.26
  },
  {
    "compound": "O=C1CCCC=C1C(CCc1ccccc1)OC(=O)c1ccc(Br)cc1 (stereo unspecified)",
    "measuredMetric": "z-score",
    "result": -0.318
  },
  {
    "compound": "CC(CCN1CCCCc2nc(C)c(C)cc21)=NOC[C@@H](C)[C@H](OCc1ccccc1)C(C)C",
    "measuredMetric": "z-score",
    "result": 1.39
  },
  {
    "compound": "CCOC(=O)[C@H](CC(C)C)NC(=O)CCC1CC(OC(=O)NCc2cccc3ccccc23)CC2(CCCC(COC(=O)NCCOc3ccccc3)O2)O1 (stereo partly specified)",
    "measuredMetric": "z-score",
    "result": 0.335
  },
  {
    "compound": "COc1ccc(O[C@H]2C=C[C@@H](c3ccccc3)O[C@@H]2CON=C(C)C)cc1",
    "measuredMetric": "z-score",
    "result": -0.462
  },
  {
    "compound": "CC(C)(C)N1C(=O)[C@H]2[C@H]3[C@H](O)[C@H](O)CC(=O)[C@@H]3CC[C@H]2C1=O",
    "measuredMetric": "z-score",
    "result": 0.178
  },
  {
    "compound": "CO[C@H]1COC(=O)CC=C[C@H](C)[C@@H](OC)COC(=O)[C@@H](C)COC(=O)CC=C[C@@H]1C",
    "measuredMetric": "z-score",
    "result": 0.389
  },
  {
    "compound": "C[C@@H](c1ccccc1)N1C(=O)[C@H]2[C@H]3[C@H](O)[C@H](O)CC(=NO[C@@H]4O[C@H](CO)[C@@H](O)[C@H](O)[C@H]4O)[C@H]3CC[C@H]2C1=O",
    "measuredMetric": "z-score",
    "result": -0.492
  },
  {
    "compound": "CCCCc1nc2c(c3c1C[C@H](C)OC3)CN(CCOc1ccccc1)CC2",
    "measuredMetric": "z-score",
    "result": 0.681
  },
  {
    "compound": "O=C1[C@H]2[C@H]3[C@H](O)[C@H](O)CC(=NOCc4ccccc4)[C@@H]3CC[C@H]2C(=O)N1C[C@@H]1CCCO1",
    "measuredMetric": "z-score",
    "result": -0.581
  },
  {
    "compound": "COc1ccc(COC(=O)NN=C2C[C@@H](O)[C@@H](O)[C@@H]3[C@@H]4C(=O)N(c5cccc(Oc6ccccc6)c5)C(=O)[C@@H]4CC[C@@H]23)cc1",
    "measuredMetric": "z-score",
    "result": -0.826
  },
  {
    "compound": "O=C1CCCC(C2=CCCCC2=O)C1 (stereo unspecified)",
    "measuredMetric": "z-score",
    "result": -0.114
  },
  {
    "compound": "CCOC(=O)[C@H](CC(C)C)NC(=O)CCC1CC(OC(=O)NCc2cccc3ccccc23)CC2(CCCC(COC(=O)NCC3CCCCC3)O2)O1 (stereo partly specified)",
    "measuredMetric": "z-score",
    "result": -0.993
  },
  {
    "compound": "COC(=O)CC=C[C@@H](C)[C@@H](C=NO[C@@H]1O[C@H](COC(C)=O)[C@@H](OC(C)=O)[C@H](OC(C)=O)[C@H]1OC(C)=O)NS(=O)(=O)c1ccc(C)cc1",
    "measuredMetric": "z-score",
    "result": -0.416
  }
]

###

# composite z-score per entry
Test system: XIP peptide (Xip251-270)
Assay: small-molecule binders of XIP peptide, primary screen, biochemical, small-molecule microarray, fluorescence 635/667 nm, 0.5 µg/mL protein (AID 1183)
Conditions: small-molecule microarray binding, fluorescence 635 nm; higher = more signal
measuredMetric: composite z-score

[
  {
    "compound": "CC(CCN1CCCCc2nc(C)c(C)cc21)=NO[C@H](C)c1cn([C@H](CO)Cc2ccccc2)nn1",
    "measuredMetric": "composite z-score",
    "result": 0.542
  },
  {
    "compound": "CCOC(=O)[C@H](CC(C)C)NC(=O)CCC1CC(OC(=O)NCc2cccc3ccccc23)CC2(CCCC(COC(=O)NCCOC)O2)O1 (stereo partly drawn)",
    "measuredMetric": "composite z-score",
    "result": 0.446
  },
  {
    "compound": "CCOC(=O)[C@H](CC(C)C)NC(=O)CCC1CC(OC(=O)NCc2ccc3c(c2)OCO3)CC2(CCCC(COC(=O)NCc3cccc(C(F)(F)F)c3)O2)O1 (stereo partly drawn)",
    "measuredMetric": "composite z-score",
    "result": 0.348
  }
]

###

Assay: small-molecule microarray binders of probe aCHRDL2, primary screen, biochemical, biotinylated probe, 635/667 nm fluorescence (AID 1100)
Conditions: higher = more signal

[
  {
    "compound": "CC(CCN1CCc2nc(-c3ccccc3)c(-c3ccccc3)cc2C1)=NOC[C@@H](O)COCc1ccco1",
    "composite z-score": -0.614
  },
  {
    "compound": "COC(=O)[C@@H]1CC[C@H](C)[C@@H](c2ccc(C)cc2)N1C(=O)c1ccc(C=NO[C@@H](C)c2cn([C@H](CO)Cc3ccccc3)nn2)cc1",
    "composite z-score": -0.925
  },
  {
    "compound": "CC(C)CON=C1C[C@@H](O)[C@@H](O)[C@@H]2[C@@H]3C(=O)N(c4ccc(F)cc4F)C(=O)[C@@H]3CC[C@H]12",
    "composite z-score": -0.509
  },
  {
    "compound": "CO[C@@H]1COC(=O)[C@H](CCSC)NC(=O)CC=C[C@@H](C)COC(=O)[C@H](C)NC(=O)CC=C[C@H]1C",
    "composite z-score": -0.833
  },
  {
    "compound": "CCOC(=O)C1=NO[C@@]2(C=C(Br)C3(OCCCO3)[C@H]3O[C@H]32)C1",
    "composite z-score": 0.521
  },
  {
    "compound": "CCCNC(=O)OC[C@H]1O[C@H](CCON=Cc2ccc(C(=O)N3[C@H](c4ccc(C)cc4)[C@@H](C)CC[C@H]3C(=O)OC)cc2)C=C[C@@H]1Oc1ccc(OC)cc1",
    "composite z-score": -0.0627
  },
  {
    "compound": "CC[C@@H](c1ccccc1)n1c(=O)n2n(c1=O)[C@H]1[C@H](O)[C@@H]3O[C@@H]3C(=NOC[C@@H](O)COCc3ccco3)[C@H]1CC2",
    "composite z-score": -0.773
  },
  {
    "compound": "COC(=O)CC=C[C@@H](C)[C@@H](C=NO[C@H](C)c1cn([C@H](CO)Cc2ccccc2)nn1)OC",
    "composite z-score": -0.736
  },
  {
    "compound": "CCOC(=O)[C@H](Cc1ccccc1)NC(=O)CCC1CC(OC(=O)NCCc2ccc(F)cc2)CC2(CCCC(COC(=O)NCCc3ccc(Cl)cc3)O2)O1 (some centres undefined)",
    "composite z-score": -0.379
  },
  {
    "compound": "Cc1ccc(S(=O)(=O)N[C@H]2COC(=O)CC=C[C@@H](C)COC(=O)CC=C[C@@H]2C)cc1",
    "composite z-score": -1.26
  },
  {
    "compound": "COC(=O)CC=C[C@@H](C)[C@H](OCc1cccc(-c2ccccc2)c1)C1CCCCC1",
    "composite z-score": -0.223
  },
  {
    "compound": "O=C1[C@H]2[C@H]3[C@H](O)[C@H](O)CC(=NOCc4ccccc4)[C@H]3CC[C@H]2C(=O)N1Cc1ccc2c(c1)OCO2",
    "composite z-score": -0.424
  },
  {
    "compound": "O=C1C[C@@H](O)[C@@H](O)[C@@H]2[C@@H]3C(=O)N(Cc4ccccc4)C(=O)[C@@H]3CC[C@@H]12",
    "composite z-score": -0.47
  },
  {
    "compound": "CCN1C(=O)[C@H]2[C@H]3[C@H](O)[C@H](O)CC(=O)[C@@H]3CC[C@H]2C1=O",
    "composite z-score": -0.478
  },
  {
    "compound": "COc1ccc(COC(=O)NN=C2C[C@@H](O)[C@@H](O)[C@@H]3[C@@H]4C(=O)N(C5CCCCC5)C(=O)[C@@H]4CC[C@H]23)cc1",
    "composite z-score": 1.47
  },
  {
    "compound": "COC(=O)CC=C[C@@H](C)[C@@H](C=NO[C@@H]1O[C@H](COC(C)=O)[C@@H](OC(C)=O)[C@H](OC(C)=O)[C@H]1OC(C)=O)OC",
    "composite z-score": -0.463
  },
  {
    "compound": "CO[C@H]1COC(=O)CC=C[C@H](C)COC(=O)[C@@H](C)NC(=O)CC=C[C@@H]1C",
    "composite z-score": -1.42
  },
  {
    "compound": "COc1ccc(C#C[C@@H]2C=C[C@H](OC(C)=O)[C@@H](COC(C)=O)O2)cc1",
    "composite z-score": -0.289
  },
  {
    "compound": "COC(=O)NCC=Cc1nc(CCCO)co1",
    "composite z-score": -0.576
  },
  {
    "compound": "CCOC(=O)[C@H](Cc1ccccc1)NC(=O)CCC1CC(OC(=O)NCc2ccc3c(c2)OCO3)CC2(CCCC(COC(=O)NCCc3ccccc3OC)O2)O1 (some centres undefined)",
    "composite z-score": -0.465
  },
  {
    "compound": "CO[C@@H]1COC(=O)CC=C[C@@H](C)[C@@H]2C=C[C@H](O)[C@@H](COC(=O)CC=C[C@H]1C)O2",
    "composite z-score": -1.25
  },
  {
    "compound": "CC(C)CON=C1C[C@@H](O)[C@@H](O)[C@@H]2[C@@H]3C(=O)N(C(C)(C)C)C(=O)[C@@H]3CC[C@H]12",
    "composite z-score": 0.562
  },
  {
    "compound": "C=CC[C@@H]1C=C[C@H](ON=C[C@@H](C)[C@H](OCc2ccccc2)C(C)C)[C@@H](CO)O1",
    "composite z-score": -0.353
  },
  {
    "compound": "CCOC(=O)[C@H](Cc1ccccc1)NC(=O)CCC1CC(OC(=O)NCCc2ccc(F)cc2)CC2(CCCC(COC(=O)NCc3ccccc3)O2)O1 (some centres undefined)",
    "composite z-score": -0.614
  }
]

Data provenance is PubChem BioAssay.
